# Experimental System: T1, CRBN, Q96SW2;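 further: pooled lentiviral library of zinc finger degron-EGFP fusions in mCherry-positive Jurkat cells, FACS-sorted after compound exposure, with degron abundance counted by next-generation sequencing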
# T1 chain: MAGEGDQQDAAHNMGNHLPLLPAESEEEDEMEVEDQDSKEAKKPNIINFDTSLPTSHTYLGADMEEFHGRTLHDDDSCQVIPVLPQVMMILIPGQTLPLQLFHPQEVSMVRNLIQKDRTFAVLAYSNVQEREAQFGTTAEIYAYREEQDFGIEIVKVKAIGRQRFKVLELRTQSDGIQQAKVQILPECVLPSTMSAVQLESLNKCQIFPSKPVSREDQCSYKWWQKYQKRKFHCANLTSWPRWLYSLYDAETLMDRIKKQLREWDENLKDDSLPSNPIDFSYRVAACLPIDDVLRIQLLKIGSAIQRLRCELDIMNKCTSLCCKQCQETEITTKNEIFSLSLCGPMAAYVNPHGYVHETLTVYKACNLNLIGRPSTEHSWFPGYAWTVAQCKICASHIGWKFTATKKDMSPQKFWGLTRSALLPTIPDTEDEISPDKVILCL
# Method: log2 fold change of degron read counts, EGFP-low vs EGFP+ sorted cells (limma voom), compound-induced degradation; higher = more compound-induced degradation of the degron-EGFP fusion; degrons are variants of IKZF1/3 zinc finger 2; compound dose not given here
# Assay Setup: Jurkat; 18 h; compound: compound 19 (5-tert-butyl-thalidomide)
Over roughly 8,300 sequences, “log2 fold change of degron read counts, EGFP-low vs EGFP+ sorted cells (limma voom), compound-induced degradation” has its median near -1.1; the highest 2% begin near 3.2. For the sample, the highest values were picked, then their nearest neighbours and some sequences at random.
Assay Readout: log2 fold change of degron read counts
Form: value (number only, do not type unit).

Given the entry FKCPICGAAFTQKGNLLRHIKL [46F_47K_49P_50I_52G_53A_54A_55F_67L_, Q9UKT9] , report its measured log2 fold change of degron read counts.
2.04

Given the entry FYCEICGRDFTQKGNLLRHIKL [46F_47Y_49E_50I_52G_53R_54D_55F_67L_, Q9UKT9] , report its measured log2 fold change of degron read counts.
-2.29

Given the entry FMCEICGANFTQKGNLLRHIKL [46F_47M_49E_50I_52G_53A_54N_55F_67L_, Q9UKT9] , report its measured log2 fold change of degron read counts.
-0.123

Given the entry FRCPQCGAYFTQKGNLLRHIKL [46F_47R_49P_50Q_52G_53A_54Y_55F_67L_, Q9UKT9] , report its measured log2 fold change of degron read counts.
-1.85

Given the entry FHCNQCGHDFTQKGNLLRHIKL [46F_47H_49N_50Q_52G_53H_54D_55F_67L_, Q9UKT9] , report its measured log2 fold change of degron read counts.
-2.36

Given the entry FGCPICGAAFTQKGNLLRHIKL [46F_47G_49P_50I_52G_53A_54A_55F_67L_, Q9UKT9] , report its measured log2 fold change of degron read counts.
3.57

Given the entry FHCPICGAAFTQKGNLLRHIKL [46F_47H_49P_50I_52G_53A_54A_55F_67L_, Q9UKT9] , report its measured log2 fold change of degron read counts.
3.05

Given the entry FQCPICGACFTQKGNLLRHIKL [46F_47Q_49P_50I_52G_53A_54C_55F_67L_, Q9UKT9] , report its measured log2 fold change of degron read counts.
0.828

Given the entry FICNICGAYFTQKGNLLRHIKL [46F_47I_49N_50I_52G_53A_54Y_55F_67L_, Q9UKT9] , report its measured log2 fold change of degron read counts.
-1.5

Given the entry FRCEICGRAFTQKGNLLRHIKL [46F_47R_49E_50I_52G_53R_54A_55F_67L_, Q9UKT9] , report its measured log2 fold change of degron read counts.
-1.67

Given the entry FNCNICGANFTQKGNLLRHIKL [46F_47N_49N_50I_52G_53A_54N_55F_67L_, Q9UKT9] , report its measured log2 fold change of degron read counts.
0.662

Given the entry FVCPICGAAFTQKGNLLRHIKL [46F_47V_49P_50I_52G_53A_54A_55F_67L_, Q9UKT9] , report its measured log2 fold change of degron read counts.
1.31

Given the entry LTCNQCGFPCTQKGNLLRHIKL [46L_47T_49N_50Q_52G_53F_54P_55C_67L_, Q9UKT9] , report its measured log2 fold change of degron read counts.
-2.43

Given the entry FKCEICGAEFTQKGNLLRHIKL [46F_47K_49E_50I_52G_53A_54E_55F_67L_, Q9UKT9] , report its measured log2 fold change of degron read counts.
-0.284

Given the entry FGCPQCGAMFTQKGNLLRHIKL [46F_47G_49P_50Q_52G_53A_54M_55F_67L_, Q9UKT9] , report its measured log2 fold change of degron read counts.
1.86
